Would you mind telling me the reported Ki of each entry?
Biological target: CB1 receptor (Rattus norvegicus, UniProt P20272)
Sequence (P20272 whole entry): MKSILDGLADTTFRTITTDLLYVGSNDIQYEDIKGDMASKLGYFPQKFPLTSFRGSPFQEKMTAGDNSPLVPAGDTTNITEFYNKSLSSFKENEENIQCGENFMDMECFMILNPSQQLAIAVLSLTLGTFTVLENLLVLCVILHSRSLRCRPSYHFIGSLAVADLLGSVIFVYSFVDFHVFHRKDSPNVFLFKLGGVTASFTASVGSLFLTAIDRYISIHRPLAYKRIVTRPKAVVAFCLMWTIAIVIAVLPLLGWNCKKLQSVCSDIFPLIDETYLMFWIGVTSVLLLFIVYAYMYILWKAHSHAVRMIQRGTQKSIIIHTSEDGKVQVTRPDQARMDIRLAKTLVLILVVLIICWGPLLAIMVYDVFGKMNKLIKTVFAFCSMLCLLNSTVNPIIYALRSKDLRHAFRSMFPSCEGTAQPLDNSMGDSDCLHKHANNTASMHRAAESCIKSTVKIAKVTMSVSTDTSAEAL
Assay: CB1 binding procedure: displacement of [3H]CP 55,940 from rat whole-brain P2 membranes
Parameters: whole brain was homogenized and centrifuged; from tissue; host or cells: rat whole brain, P2 membrane fraction
Settings: means ± SEM; [3H]CP 55,940, rat brain membranes; read-out: Ki (nM) CB1
Give bare numbers, in nM.

Check out these entries, answers already filled in.
{"Compound": "CCCCCCC(C)(C)c1cc(O)c(C2CCCC(C)C2)c(O)c1 (mixture of isomers) [O-1657]", "Experimental System": "CB1 receptor (Rattus norvegicus, UniProt P20272)", "Test Value": 14}
{"Compound": "CCCC(C)(C)c1ccc(-c2cc(C)ccc2C(C)C)c(O)c1 [O-1532]", "Experimental System": "CB1 receptor (Rattus norvegicus, UniProt P20272)", "Test Value": 876}

Incoming: Write Ki of CCCCCCC(C)(C)c1cc(OC)c(C2=CCC(=O)CC2)c(OC)c1 [O-2114] ; system used: CB1 receptor (Rattus norvegicus, UniProt P20272)
Outgoing: 8440

Entry source: patent US7179800B2
